Known relative integration efficiency (log2) of a selection of sequences
Tested on: VchCAST RNA-guided transposition machinery (E. coli BL21(DE3) host, lacZ target)
protocol.summary: relative integration efficiency (T-LR orientation) vs wild-type transposon end (log2 (normalized fold change)); transposon end mutated: right end (5 bp flank + 75 bp right end); higher = more efficient transposition
Answer as a number with no unit attached.

relative integration efficiency (log2) measured on ACATTTGTTGATACAACCAGCCCATGATAATTACACCCATAAATTGATAATTATCACACCCATAAATTGATATTGCCTCTGATCATAGTCAGACCAACATTGCTACGACCCGTATTCGCACCGACAC = -3.69

ACATTTGTTGATACAACAATAAAATGATAATTACACCAATAAATTGATAATTATCACACCAATAAATTGATATTGCCTCTGATCATAGTCAGACCAACATTGCTACGACCCGTATTCGCACCGACAC has a reported relative integration efficiency (log2) of -0.547

Input ACATTTGTTGATACACCCATAAATTGATAATTACAACCATAAGTTGATATTTTTCAGTGGGTATTTAACTATAACGCTCTGATCATAGTCAGACCAACATTGCTACGACCCGTATTCGCACCGACAC . Output relative integration efficiency (log2): 2.82
